Value source: the DeepSol protein solubility set

# experiment.summary: soluble on expression in E. coli; label from the status in PepcDB or PDB records
quantity.name: soluble on expression in E. coli

chain=MSLAIKMLAIDLDGTLLTDSKTILPGTYKALQEAKAAGIKIVLTSGRPLSGIKGYAEELGLSGSEEYAILFNGAVVQNLDGRVLISHDLDFGDFNTLLHMQRLSDVNLDFETPDRFYTLDKRISIRLQIDGAETKNQLWIQDRSDFKKDFTFAKAVYQCDDPDQVDRLWNRLPDWFFQSYAVVRSWPEVVEVGSLAASKGYAVSELASRLGLSNSEVMIFGDQGNDRSMFEIPDFKRVAMGNAIDEIKDLADYVTDTNERDGIAKALRKLVLEGHHHHHH recorded_measurement=soluble
chain=MGSDKIHHHHHHMTISNQELTLTPLRGKSGKAYIGTYPNGERVFVKYNTTPILPALAKEQIAPQLLWARRTSNGDMMSAQEWLDGRTLTKEDMGSKQIIHILLRLHKSRPLVNQLLQLGYKIENPYDLLMDWEKQTPIQIRENTYLQSIVTELKRSLPEFRTEVATIVHGDIKHSNWVITTSGLIYLVDWDSVRLTDRMYDVAYILSHYIPQKHWKDWLSYYGYKDNEKVWSKIIWYGQFSYLSQIIKCFDKRDMEHVNQEIYELRKFRELIKKHNAS recorded_measurement="not soluble"
chain=MGNCWFKGNPYFNRVSSNATKSESPKMQSPSERKEKDDSMLPSNAKEVEELRRESARNPLIAFTFEELKRITKNFRQDSLLGGGGFGRVYKGYITSDLREGLTIEEPLRVAVKVHDGDNSFQGHREWLAEVIFLGQLSHPNLVKLIGYCCEDDHRVLVYEFMPLGSVESHLFSRVMVPLPWFTRMKIALGAAKGLAFLHEAEKPVIYRDFKTSNILLDEEYNAKLSDFGLAKDGPVGDKSHVSTRIMGTYGYAAPEYIMTGHLTAMSDVYSYGVVLLELLTGRKSLDKSRPVREQTLADWAFPMLIQKKKVLGIVDPRLAEDYPVKAVQKTAMLAYHCLNRNPKARPLMRDIVATLEPLQQMEEDPSISLVSGTEV recorded_measurement=soluble
chain=MGSDKIHHHHHHMAKKHRKESLDALFREKVLLEMLKIAGVGMWTYSTETGRLRYIGFADTIHRHDELQYVDPADYLKLMNGEDLQTVTQFMADIHAGRPPQEGIRYKIHGNGEDFYLENHVVTCQPLGNGFYYLKGYVKNITAQVMEANRLCIEKERTEQADRLRSAFFAHVSRELRGPLNRIEELASQMVHAESVEEREECFHRIQENRRMAMKIADALHAVSQLPVSTYEPYHSPMQLCLIYRDLLMENGYSHNPEDGEQEENANFLSLLFS recorded_measurement="not soluble"
chain=MTYPTFALDDITSLHESAQVEFKLARGRDGQGQLPEDIWATYSSFANTLGGEIILGVREDRGHFTIEGIPNPQPVLQEFWEIIDNPSRVSCNILAISDVQLIEIMNKKLIRIRVPLAPEHLKPVFIGTDVYTGSYFRVGDADMHASRKQVMQMLRRAHHCNKLFKARLEHHHHHH recorded_measurement="not soluble"

---

# experiment.summary: soluble on expression in E. coli; label from the status in PepcDB or PDB records
quantity.name: soluble on expression in E. coli

chain=MGSDKIHHHHHHMSAIPQAARKRGRPVKGESATLRDELILKSAKLFRTQGYERTTVRDIAAAAGVQAGSWFYYFKTKQDILVAVMEQGMSNALARIEALDVEHLPARDAFRALVHTHLHTLVSPDHDFIPVLLYEWKSLDEAMQAKVLKLKDRYEAVWDGVIERLQAAGEWPAPTPIDRLLMFGALNWVAQWYKPDGALGLDALAEHAVRFLLRTAETPAPAPAGTAKRRRGVKAS recorded_measurement="not soluble"
chain=MIINLVKQLGTTRGYITLWTGIDSAIAALAVQGIASHRTQQYIDEYYPNIGGPLLNQDKEEDELTDAESFRRVIRNGFRDSVIRVVAVTAARPFAVCFARQVAQVIGNETKYTTCAQALAVIGKQEGPGGLFSGLAPQIVGELLVIWGVHLITHGIQRAILRIEFGDTKNKDETKAKAAKDVHKFIHTAVPFLVNSFGYPYSVVSTVMAVAGSGLAVSFLPYSPSFNNWHGAWDYLRPIGLKRGNRLFLREQVGAVTVGVDQQLYASNSYFA recorded_measurement="not soluble"
chain=MAIKDAIEKIVSYFDADEVTDHEDVAKERPVKVQKTEQTPSQQQRKPERPQETVPPRRQHIKSDVQETQVLRSLSLSRSQVNQGSQQMNTTKTTIAIKYPKKYEDAQEIVELLIENECVLIDFQYMLEAQARRCLDFIDGASKVLTGNLQKVGSSMYLLTPINVVVDIEEIGLSHGNQESTFDFDMKRRLEHHHHHH recorded_measurement="not soluble"

---

# experiment.summary: soluble on expression in E. coli; label from the status in PepcDB or PDB records
quantity.name: soluble on expression in E. coli

chain=MDDITDGLRYRISNVIHVSPELTYDGRIMSAGKLLKLMDDLGGIICLRYLDHNSSNLYDNSFNAVVTVAVKGLAFYSPIRLNDIILIRAGLVYVGNTSADILINVVREDLNGAKEHVATAYFTYVRVDKDGKPIKIP quantity_name="soluble on expression in E. coli" recorded_measurement=soluble
chain=AHHHHHHGSAELKVSAIKEGTVIDHIPAGKGLKVIQILGLGELKNGGAVLLAMNVPSKKLGRKDIVKVEGKFLSEEEVNKIALVAPTATVNIIREYKVVEKFKVEIPDVIEGILKCGNPNCITHYEYVTPKFYVISKEPLKVRCHYCERTMEEEEILANL quantity_name="soluble on expression in E. coli" recorded_measurement=soluble

---

# experiment.summary: soluble on expression in E. coli; label from the status in PepcDB or PDB records
quantity.name: soluble on expression in E. coli

chain=MDFKAKLLAEMAKKRKAVSGMEVKEGNAKFVKGADLEMKRNQEYERKQQEIASKKRKVDDEILQESSSRTKPAPVENESEIDEKTPMSEIQTRLRQRNHPIMLFGETDIDVRKRLHQLELAQPDLNEGWENELQTAMKVIGKEMDKAVVEGTADSATRHDIALPQGYEEDNWKNIEHNSTLLSVDDDLKRDCDIILSICRYILARWAKDLNDRPLDVKKTAQGMHEAAHHKQTMMHLKSLMTSMERYNCNNDIRHHLAKICRLLVIDRNYLEANNAYMEMAIGNAPWPVGVTRSGIHQRPGSAKSYVSNIAHVLNDETQRKYIQAFKRLMTKMQEYFPTDPSKSVEFVKKAV recorded_measurement="not soluble"
chain=MGSDKIHHHHHHMVMDHDIYFGYQRPRPTEYVQFANFDSRQLNLYLAGRIANNPPTKEVTESIGYMDGIIDFSDILGRRIFDNRTIEYQFKALNINYHDRKLLEQKCKRLLLIPMRQPIYDSHDLPFYWFGKASSVTANDDHVNNVLEITVQFNVSPYALRKGQFDDIWDNFSLETGYAQFTKYSVKGTKKISLYNDSDLKSRLKVICQNDMTINGKYKYTKNYQDNPNFRLEPGINDLTVNGNGDIEFQWESEVML recorded_measurement="not soluble"

---

# experiment.summary: soluble on expression in E. coli; label from the status in PepcDB or PDB records
quantity.name: soluble on expression in E. coli

chain=KKPMFLCVLSSTKTAHIPKLSAAGKTAELTDYTPAGDAELMETGNIISVPVLPMTPPYDTPTPAIMTRSALKLTDAPYHFINSGLIVTPDVPCIDLKANPGEDIREPVAVMDVQGIYERAKLLAKRLRNQADHVVIGESIPGGTTTAMGVLMALGYNGNVSSSADENPLELKKQVVEEGMKASGLTFGCLKDDPMKAIACMGDPMMPAVAGLVAGFQDTDTSVVLAGGTQMAAVYALIKHMGLNTEKIAIATTRYVVEDKSANFIQLTTTLGVPVVYVADPGFGKSSMKGLHRYETGTIKEGAGAGGAMYLAG recorded_measurement="not soluble"
chain=MGSDKIHHHHHHQMEERLGNTSQELQSLQVQNIKLAGSLQHVAEKLCRELYNKAGAHRCSPCTEQWKWHGDNCYQFYKDSKSWEDCKYFCLSENSTMLKINKQEDLEFAASQSYSEFFYSYWTGLLRPDSGKAWLWMDGTPFTSELFHIIIDVTSPRSRDCVAILNGMIFSKDCKELKRCVCERRAGMVKPE recorded_measurement="not soluble"
chain=MGSDKIHHHHHHLNVYHASLEEAQADPRLKGLQGASPFERLDWLALLANECLDPARARLSVVTSGECMAALPWIEREGRIDALANWYSFFVSPLGDSALLSRIVEALPHGRAAFAPLPEEDARLLARAFRNAGWCTLAAPCDVNHVLPVEGRSFAQYWAERPGALRETVRRKSRKGEVSLRILTEFSPEDWEAYETIYRLSWKPGEGSPAFLRKWAEADGEAGRLRLGIAEIDGAAVAAQFWTVEGGTAYIHKLAHDERFRKSSPGTLLTAAMFEHVIDRDRVDLIDFGTGDDPYKRDWMDDVRSRWSVQAWRPGAVRHWPSLALALARTLAGQIMRPLVSRNGDG recorded_measurement="not soluble"
chain=MEKAIHNLGKDARLHIIHILLQNRSKKELADELGITPAAITKYLKGITHPSDEIIEKCIEIASEDEEYHEIIKVIVSDITEALMELLREIGIEKMIDNEDIQKLKKLLDKAFDKMLSTSPSFV recorded_measurement="not soluble"
chain=MSEPLLEVKNLKTYFPIKGGIFSRTVGHVKAVDGVSFTIKKGEVFGLVGESGSGKTTIGKTILRLVQKTEGEVKFKGHDVHSLSKEELRKHRPNMQLVFQDPFSSLNPRMRIGEALGEPMLAHGLATKENVREKVTEVLELCGLAPYHIDRYPHEFSGGQRQRIVIARAMVLNPEFIVADEPVAALDVSIQAQIINLFSELQEKKGLSYLFISHDLSVVEHLCTKIGIMYLGTIVETAPRDELFTNPLHPYTKALLSAVPIPDPTVKRERIILEGDIPSPANPPSGCCFHTRCPFATDICKQTGNSVMLVKSTLLLVIMYKREGLFQKLKESFFIY recorded_measurement="not soluble"
